Reported pIC50 values are given for each entry in this list.
system: NRAS WT (Homo sapiens (Human), UniProt P01111+P62937)
Sequence (P01111 whole entry, one chain of several): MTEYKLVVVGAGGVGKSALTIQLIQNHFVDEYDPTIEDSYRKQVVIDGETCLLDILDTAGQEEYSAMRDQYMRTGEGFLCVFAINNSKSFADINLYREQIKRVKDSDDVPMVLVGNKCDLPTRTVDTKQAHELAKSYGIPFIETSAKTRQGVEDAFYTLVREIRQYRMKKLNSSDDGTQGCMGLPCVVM
measurementDescription: Ras-Raf (BRAF RBD) disruption / FRET / MOA assay, NRAS WT
Format: biochemical
experimentalContext: read-out: IC50* NRAS WT FRET data
pIC50: −log10 of the molar value.

Below are worked cases with known answers.
molecule: C=CC(=O)N1CC2(CCN(C(=O)N(C)[C@H](C(=O)N[C@H]3Cc4cccc(c4)-c4ccc5c(c4)c(c(-c4cccnc4[C@H](C)OC)n5CC)CC(C)(C)COC(=O)[C@@H]4CCCN(N4)C3=O)C(C)C)CC2)C1 (atropisomer, axis not shown) [Example A680]
pIC50: 6.00 to 7.00
//
molecule: C=CS(=O)(=O)N1CCC(C(=O)N(C)[C@H](C(=O)N[C@H]2Cc3cccc(c3)-c3ccc4c(c3)c(c(-c3cncnc3)n4CC)CC(C)(C)COC(=O)[C@@H]3CCCN(N3)C2=O)C(C)C)C1 (single isomer, unassigned) [Example A171]
pIC50: < 5.00
//
molecule: CCn1c(-c2cccnc2[C@H](C)OC)c2c3cc(ccc31)-c1csc(n1)C[C@H](NC(=O)[C@@H](COC1CN(C(=O)C#CC(C)(C)N(C)C)C1)C(C)C)C(=O)N1CCC[C@H](N1)C(=O)OCC(C)(C)C2 (atropisomer, axis not shown) [Example A721]
pIC50: 5.00 to 6.00

Could you now consider this next molecule?
Request: Enter recorded pIC50 with NRAS WT (Homo sapiens (Human), UniProt P01111+P62937) for CO[C@@H](C)c1ncccc1-c1c2c3cc(ccc3n1CC(F)(F)F)-c1cccc(c1)CN(NC(=O)[C@@H](COC1CN(C(=O)C#CC(C)(C)N(C)C)C1)C(C)C)C(=O)N1CCC[C@H](N1)C(=O)OCC(C)(C)C2 (atropisomer, axis not shown) [Example A601] here.
Response: 5.00 to 6.00

----------
system: KRAS G12D (Homo sapiens (Human), UniProt P01116+P62937, G12D)
Sequence (P01116-2 other isoform, or with tags, fused parts or gaps G12D): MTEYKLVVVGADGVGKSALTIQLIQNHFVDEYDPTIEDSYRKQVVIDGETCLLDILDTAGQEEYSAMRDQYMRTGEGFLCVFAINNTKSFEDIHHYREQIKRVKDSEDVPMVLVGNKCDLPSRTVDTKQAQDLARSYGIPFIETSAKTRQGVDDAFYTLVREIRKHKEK
Sequence (P62937 whole entry): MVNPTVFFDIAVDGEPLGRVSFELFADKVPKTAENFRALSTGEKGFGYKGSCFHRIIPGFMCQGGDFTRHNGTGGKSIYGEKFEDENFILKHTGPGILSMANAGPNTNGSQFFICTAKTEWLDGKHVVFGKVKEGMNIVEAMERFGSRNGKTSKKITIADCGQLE
measurementDescription: Ras-Raf (BRAF RBD) disruption / FRET / MOA assay, KRAS G12D
Type: biochemical
experimentalContext: Ras-Raf disruption/FRET/MOA assay; class symbols; read-out: KRAS G12D FRET data IC50
pIC50: −log10 of the molar value.
endpointLabel: pIC50

Below are worked cases with known answers.
compound: C=CC(=O)N1CC[C@H](C(=O)N(C)[C@H](C(=O)N[C@H]2Cc3cc(O)cc(c3)-c3ccc4c(c3)c(c(-c3cccnc3CN(C)C)n4CC)CC(C)(C)COC(=O)[C@@H]3CCCN(N3)C2=O)C(C)C)C1
system: KRAS G12D (Homo sapiens (Human), UniProt P01116+P62937, G12D)
pIC50: < 5.00
//
compound: CO[C@@H](C)c1ncccc1-c1c2c3cc(ccc3n1CC(F)(F)F)-c1csc(n1)C[C@H](NC(=O)CCOC1CN(C(=O)C#CC(C)(C)N3CCC3)C1)C(=O)N1CCC[C@H](N1)C(=O)OCC(C)(C)C2 (atropisomer, axis not shown)
system: KRAS G12D (Homo sapiens (Human), UniProt P01116+P62937, G12D)
pIC50: < 5.00
//
compound: CCn1c(-c2cccnc2)c2c3cc(ccc31)-c1csc(c1)C[C@H](NC(=O)[C@H](C(C)C)N(C)C(=O)[C@H]1CCN(C(=O)C#CCN3CCOCC3)C1)C(=O)N1CCC[C@H](N1)C(=O)OCC(C)(C)C2
system: KRAS G12D (Homo sapiens (Human), UniProt P01116+P62937, G12D)
pIC50: < 5.00

Request: Give the reported pIC50 for this compound. CCn1c(-c2cccnc2[C@H](C)OC)c2c3cc(ccc31)-c1cc(CF)cc(c1)C[C@H](NC(=O)[C@H](C(C)C)N1CC[C@]3(CCN(C(=O)C#CC(C)(C)N(C)C)C3)C1=O)C(=O)N1CCC[C@H](N1)C(=O)OCC(C)(C)C2 (atropisomer, axis not shown)
Response: 5.00 to 6.00

----------
system: KRAS WT (Homo sapiens (Human), UniProt P01116+P62937)
Sequence (P01116-2 other isoform, or with tags, fused parts or gaps, one chain of several): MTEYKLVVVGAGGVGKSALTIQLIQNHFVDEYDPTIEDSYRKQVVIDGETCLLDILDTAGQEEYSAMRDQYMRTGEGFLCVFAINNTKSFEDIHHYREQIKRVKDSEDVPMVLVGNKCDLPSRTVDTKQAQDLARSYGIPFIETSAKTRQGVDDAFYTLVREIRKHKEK
measurementDescription: Ras-Raf (BRAF RBD) disruption / FRET / MOA assay, KRAS WT
Assay type: biochemical
experimentalContext: read-out: IC50* KRAS WT FRET data
endpointLabel: IC50

molecule: C=CC(=O)N1CC[C@@](C#N)(C(=O)N(C)[C@H](C(=O)N[C@H]2Cc3cccc(c3)-c3ccc4c(c3)c(c(-c3cccnc3[C@H](C)OC)n4CC)CC(C)(C)COC(=O)[C@@H]3CCCN(N3)C2=O)C(C)C)C1 (atropisomer, axis not shown) [Example A444]
endpointLabel: IC50
observedMeasurement: 1 to 10 µM

Could you now consider this next molecule?
Request: Give the reported IC50 for this molecule. CC#CC(=O)N1CC[C@@H](C(=O)N(C)[C@H](C(=O)N[C@H]2Cc3cc(O)cc(c3)-c3ccc4c(c3)c(c(-c3cncnc3)n4CC)CC(C)(C)COC(=O)[C@@H]3CCCN(N3)C2=O)C(C)C)C1 [Example A169]
Response: 1 to 10 µM

----------
system: KRAS G12S (Homo sapiens (Human), UniProt P01116+P62937, G12S)
Sequence (P01116-2 other isoform, or with tags, fused parts or gaps G12S, one chain of several): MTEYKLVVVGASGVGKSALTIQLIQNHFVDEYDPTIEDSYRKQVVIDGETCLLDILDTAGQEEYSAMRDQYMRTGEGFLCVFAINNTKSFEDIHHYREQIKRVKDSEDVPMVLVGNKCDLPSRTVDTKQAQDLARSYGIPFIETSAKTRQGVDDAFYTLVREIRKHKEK
measurementDescription: Ras-Raf (BRAF RBD) disruption / FRET / MOA assay, KRAS G12S
Assay type: biochemical
experimentalContext: Ras-Raf disruption/FRET/MOA assay; class symbols; read-out: KRAS G12S FRET data IC50
endpointLabel: IC50

Below are worked cases with known answers.
compound: CCn1c(-c2cccnc2[C@H](C)OC)c2c3cc(ccc31)-c1cc(O)cc(c1)C[C@H](NC(=O)[C@H](C(C)C)N(C)C(=O)[C@H]1CCN(C(=O)/C=C/C(F)(F)F)C1)C(=O)N1CCC[C@H](N1)C(=O)OCC(C)(C)C2
IC50: 10 to 100 nM

compound: CCn1c(-c2cccnc2[C@H](C)OC)c2c3cc(ccc31)-c1cccc(c1)C[C@H](NC(=O)[C@H](C(C)C)N(C)C(=O)C1(F)CCN(C(=O)/C=C/CN(C)C)CC1)C(=O)N1CCC[C@H](N1)C(=O)OCC(C)(C)C2 (atropisomer, axis not shown)
IC50: 100 to 1000 nM

compound: C=CC(=O)N1CCC2(CCN([C@H](C(=O)N[C@H]3Cc4cc(O)cc(c4)-c4ccc5c(c4)c(c(-c4cccnc4[C@H](C)OC)n5CC)CC(C)(C)COC(=O)[C@@H]4CCCN(N4)C3=O)C(C)C)C2=O)C1 (stereo partly shown)
IC50: 10 to 100 nM

Could you now consider this next compound?
Request: Give the reported IC50 for this compound. `C=CC(=O)N1CCCN(C(=O)N(C)[C@H](C(=O)N[C@H]2Cc3cc(O)cc(c3)-c3ccc4c(c3)c(c(-c3ccccc3CCOC)n4CC)CC(C)(C)COC(=O)[C@@H]3CCCN(N3)C2=O)C(C)C)CC1`
Response: 1000 to 10000 nM

----------
system: NRAS G12C (Homo sapiens (Human), UniProt P01111+P62937, G12C)
Sequence (P01111 whole entry G12C, one chain of several): as the sequence (P01111 whole entry, one chain of several) above, with G12C counted along it
measurementDescription: Ras-Raf (BRAF RBD) disruption / FRET / MOA assay, NRAS G12C
Assay type: biochemical
experimentalContext: read-out: IC50* NRAS G12C FRET data
pIC50: −log10 of the molar value.
Reported pIC50 values are given for each entry in this list.

molecule: C=CC(=O)N1CCO[C@H]2CCN(C(=O)N(C)[C@H](C(=O)N[C@H]3Cc4nc(cs4)-c4ccc5c(c4)c(c(-c4cccnc4[C@H](C)OC)n5CC)CC(C)(C)COC(=O)[C@@H]4CCCN(N4)C3=O)C(C)C)C[C@H]21 (atropisomer, axis not shown) [Example A580]
pIC50: 7.00 to 8.00

Could you now consider this next molecule?
Request: Give the reported pIC50 for this molecule. C=CC(=O)N1CC(OC[C@H](C(=O)N[C@H]2Cc3cc(F)cc(c3)-c3ccc4c(c3)c(c(-c3cccnc3[C@H](C)OC)n4CC(F)(F)F)CC(C)(C)COC(=O)[C@@H]3CCCN(N3)C2=O)C(C)C)C1 (atropisomer, axis not shown) [Example A725]
Response: 6.00 to 7.00

----------
system: KRAS G13D (Homo sapiens (Human), UniProt P01116+P62937, G13D)
Sequence (P01116-2 other isoform, or with tags, fused parts or gaps G13D, one chain of several): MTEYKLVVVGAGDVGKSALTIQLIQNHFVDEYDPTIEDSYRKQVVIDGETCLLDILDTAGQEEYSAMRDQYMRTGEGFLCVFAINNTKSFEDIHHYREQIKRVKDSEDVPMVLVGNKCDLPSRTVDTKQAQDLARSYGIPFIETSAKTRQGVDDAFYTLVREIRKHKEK
measurementDescription: Ras-Raf (BRAF RBD) disruption / FRET / MOA assay, KRAS G13D
Format: biochemical
experimentalContext: read-out: IC50* KRAS G13D FRET data
Method: The purpose of this biochemical assay is to measure the ability of test compounds to facilitate ternary complex formation between a nucleotide-loaded Ras isoform and cyclophilin A; the resulting ternary complex disrupts binding to a BRAF^RBD construct, inhibiting Ras signaling through a RAF effector. Compound is present in plate wells as a 10-point 3-fold dilution series starting at a final concentration of 30 μM. […]
Reported IC50 values are given for each entry in this list.

Request: Give the reported IC50 for this compound. CCn1c(-c2cncnc2)c2c3cc(ncc31)-c1cc(O)cc(c1)C[C@H](NC(=O)[C@H](C(C)C)N(C)C(=O)[C@H]1CCN(C(=O)C#CCN(C)C)C1)C(=O)N1CCC[C@H](N1)C(=O)OCC(C)(C)C2 [Example A108]
Response: 1000 to 10000 nM
